Cited source for all entries: the supplement of paper PMC11061612

Test system: SW626 (Colorectal Carcinoma)
Assay: combination Emax (second highest fraction inhibited in the dose matrix, 72 h); higher = more inhibition; extreme values may be limits of the assay
Property: combination Emax; scope: individual molecules
Please reply with the number alone, leaving off any unit.

Some molecules with recorded combination Emax:
[
  {
    "molecule": "COc1nnc2ccc(N3CCC(c4ccc(OCCN5CCN(C)C(=O)[C@H]5C)cc4)CC3)nn12 [AZD5153] + CN(CC[C@H](CSC1=CC=CC=C1)NC2=C(C=C(C=C2)S(=O)(=O)NC(=O)C3=CC=C(C=C3)N4CCC(CC4)[C@H](C5=CC=CC=C5C6=CC=C(C=C6)Cl)O)S(=O)(=O)C(F)(F)F)CCO [AZD4320] (first compound max 1 µM, 7x7, partner max 1 µM)",
    "target_desc": "SW626 (Colorectal Carcinoma)",
    "combination Emax": 0.777
  },
  {
    "molecule": "C=CCn1c(=O)c2cnc(Nc3ccc(N4CCN(C)CC4)cc3)nc2n1-c1cccc(C(C)(C)O)n1 [AZD1775] + O=C(c1cc(Cc2n[nH]c(=O)c3ccccc23)ccc1F)N1CCN(C(=O)C2CC2)CC1 [Olaparib] (first compound max 1 µM, partner max 10 µM)",
    "target_desc": "SW626 (Colorectal Carcinoma)",
    "combination Emax": 0.573
  },
  {
    "molecule": "CN(C)CCCOc1ccc(-c2ccc3ncc4c(c3c2)n(C2CCOCC2)c(=O)n4C)cn1 [AZD0156] + C=CCn1c(=O)c2cnc(Nc3ccc(N4CCN(C)CC4)cc3)nc2n1-c1cccc(C(C)(C)O)n1 [AZD1775] (first compound max 1 µM, partner max 1 µM)",
    "target_desc": "SW626 (Colorectal Carcinoma)",
    "combination Emax": 0.508
  }
]

Q: Input CN(CCO)CC[C@H](CSc1ccccc1)Nc1ccc(S(=O)(=O)NC(=O)c2ccc(N3CCC([C@@H](O)c4ccccc4-c4ccc(Cl)cc4)CC3)cc2)cc1S(=O)(=O)C(F)(F)F [AZD4320] + C[C@@H](Nc1cc(F)cc(F)c1)c1cc(C(=O)N(C)C)cc2c(=O)cc(N3CCOCC3)oc12 [AZD8186] (first compound max 1 µM, 7x7, partner max 3 µM) , output reported combination Emax.
A: 0.651

Q: Input COc1cccc(OCCCN)c1-c1cc(Nc2cnc(C#N)cn2)n[nH]1 [Prexasertib] + C=CCn1c(=O)c2cnc(Nc3ccc(N4CCN(C)CC4)cc3)nc2n1-c1cccc(C(C)(C)O)n1 [AZD1775] (first compound max 1 µM, partner max 1 µM) , output reported combination Emax.
A: 0.695

Q: Input CC1(C)CCC(CN2CCN(c3ccc(C(=O)NS(=O)(=O)c4ccc(NCC5CCOCC5)c([N+](=O)[O-])c4)c(Oc4cnc5[nH]ccc5c4)c3)CC2)=C(c2ccc(Cl)cc2)C1 [Venetoclax] + C[C@@H]1COCCN1C2=NC(=NC(=C2)C3(CC3)[S@](=N)(=O)C)C4=C5C=CNC5=NC=C4 [AZD6738] (first compound max 1 µM, 7x7, partner max 10 µM) , output reported combination Emax.
A: 0.638

Q: Input CCN(CCO)CCCOc1ccc2c(Nc3cc(CC(=O)Nc4cccc(F)c4)[nH]n3)ncnc2c1 [AZD2811] + C=CCn1c(=O)c2cnc(Nc3ccc(N4CCN(C)CC4)cc3)nc2n1-c1cccc(C(C)(C)O)n1 [AZD1775] (first compound max 1 µM, partner max 1 µM) , output reported combination Emax.
A: 0.427

Q: Input COc1cccc(OCCCN)c1-c1cc(Nc2cnc(C#N)cn2)n[nH]1 [Prexasertib] + C[C@@H]1COCCN1C2=NC(=NC(=C2)C3(CC3)[S@](=N)(=O)C)C4=C5C=CNC5=NC=C4 [AZD6738] (first compound max 1 µM, 7x7, partner max 10 µM) , output reported combination Emax.
A: 0.743
